Attribution: ChEMBL document CHEMBL2407076

Exercise: for every item that follows, state its recorded EC.
- Tested on: Paracentrotus lividus
- Assay Protocol: Microtubule destabilizing activity in sea urchin embryo assessed as embryo spinning compound treated just after hatching at 8 to 10 hrs post fertilization and measured after 15 mins to 20 hrs of treatment

Completed entries (count: 8):
COc1ccc(-c2[nH]nc(N)c2-c2cc3c(c(OC)c2OC)OCO3)cc1 ... >4 µM
COc1ccc(-c2[nH]nc(N)c2-c2cc(OC)c3c(c2OC)OCO3)cc1 ... >4 µM
COc1ccc(-c2c(N)n[nH]c2-c2cc(OC)c3c(c2)OCCO3)cc1 ... >5 µM
COc1ccc(-c2c(N)n[nH]c2-c2cc(OC)c3c(c2OC)OCO3)cc1 ... >4 µM
COc1ccc(-c2c(N)n[nH]c2-c2cc3c(c(OC)c2OC)OCO3)cc1 ... >4 µM
COc1ccc(-c2c(N)n[nH]c2-c2cc(OC)c3c(c2)OCO3)cc1 ... >5 µM
COc1ccc(-c2[nH]nc(N)c2-c2cc(OC)c(OC)c(OC)c2)cc1 ... 1 µM
COc1ccc(-c2c(N)n[nH]c2-c2cc(OC)c(OC)c(OC)c2)cc1 ... >10 µM

Turning now to a further record.
Return EC measured with Paracentrotus lividus given this compound: "COc1ccc(-c2[nH]nc(N)c2-c2cc(OC)c3c(c2)OCO3)cc1"
>10 µM
